Just for reference, patent US20210261621A1 is where these values come from.

# Test system: P. aeruginosa PAO1
# Parameters: unit not given beside the values
# Condition context: in combination with Minocycline
Positions of bridges follow the written chain, without caps; N, C: chain ends. Non-standard residues stand in square brackets, D forms with d. Residues, ends and D or L forms follow the SMILES beside them. *: point of attachment. Acetyl(1-adamantyl) = O=C(CC12CC3CC(CC(C3)C1)C2)*; Benzoyl(4-Ph) = O=C(c1ccc(-c2ccccc2)cc1)*; Lauroyl = CCCCCCCCCCCC(=O)*; Octanoyl = CCCCCCCC(=O)*; Dab = NCC[C@H](N)C(=O)O; Butyryl = CCCC(=O)*
Value kind: MIC of adjuvant in combo

Here is how some compounds turned out for MIC of adjuvant in combo.
CCCCCCCC(=O)NCC[C@H](NC(=O)CCCCCCC)C(=O)N[C@H](C(=O)N[C@@H](CCN)C(=O)N[C@H]1CCNC(=O)[C@H]([C@@H](C)O)NC(=O)[C@H](CCN)NC(=O)[C@H](CCN)NC(=O)[C@H](CC(C)C)NC(=O)[C@@H](Cc2ccccc2)NC(=O)[C@H](CCN)NC1=O)[C@@H](C)O [Compound 2, Dioctanoic Acid (Di-C8) Polymyxin] (Octanoyl-[Dab](Octanoyl)T[Dab][Dab][Dab][dF]L[Dab][Dab]T; lactam 4-C) | (2)
CC(C)C[C@@H]1NC(=O)[C@@H](Cc2ccccc2)NC(=O)[C@H](CCN)NC(=O)[C@@H](NC(=O)[C@H](CCN)NC(=O)[C@@H](N)[C@@H](C)O)CCNC(=O)[C@H]([C@@H](C)O)NC(=O)[C@H](CCN)NC(=O)[C@H](CCN)NC1=O [PMBN, polymyxin B nonapeptide, reference compound] (H-T[Dab][Dab][Dab][dF]L[Dab][Dab]T; lactam 3-C (inferred)) | (8)
CCCC(=O)NCC[C@H](NC(=O)CCC)C(=O)N[C@H](C(=O)N[C@@H](CCN)C(=O)N[C@H]1CCNC(=O)[C@H]([C@@H](C)O)NC(=O)[C@H](CCN)NC(=O)[C@H](CCN)NC(=O)[C@H](CC(C)C)NC(=O)[C@@H](Cc2ccccc2)NC(=O)[C@H](CCN)NC1=O)[C@@H](C)O [Compound 1, Dibutyric Acid (Di-C4) Polymyxin] (Butyryl-[Dab](Butyryl)T[Dab][Dab][Dab][dF]L[Dab][Dab]T; lactam 4-C) | (2)
CCCCCCCCCCCC(=O)NCC[C@H](NC(=O)CCCCCCCCCCC)C(=O)N[C@H](C(=O)N[C@@H](CCN)C(=O)N[C@H]1CCNC(=O)[C@H]([C@@H](C)O)NC(=O)[C@H](CCN)NC(=O)[C@H](CCN)NC(=O)[C@H](CC(C)C)NC(=O)[C@@H](Cc2ccccc2)NC(=O)[C@H](CCN)NC1=O)[C@@H](C)O [Compound 3, Didodecanoic Acid (Di-C12) Polymyxin] (Lauroyl-[Dab](Lauroyl)T[Dab][Dab][Dab][dF]L[Dab][Dab]T; lactam 4-C) | (16)
CC(C)C[C@@H]1NC(=O)[C@@H](Cc2ccccc2)NC(=O)[C@H](CCN)NC(=O)[C@@H](NC(=O)[C@H](CCN)NC(=O)[C@@H](NC(=O)[C@H](CCNC(=O)c2ccc(-c3ccccc3)cc2)NC(=O)c2ccc(-c3ccccc3)cc2)[C@@H](C)O)CCNC(=O)[C@H]([C@@H](C)O)NC(=O)[C@H](CCN)NC(=O)[C@H](CCN)NC1=O [Compound 5] ({Benzoyl(4-Ph)}-[Dab](Benzoyl(4-Ph))T[Dab][Dab][Dab][dF]L[Dab][Dab]T; lactam 4-C) | (8)

Then this compound:
Which MIC of adjuvant in combo is reported for this compound? CC(C)C[C@@H]1NC(=O)[C@@H](Cc2ccccc2)NC(=O)[C@H](CCN)NC(=O)[C@@H](NC(=O)[C@H](CCN)NC(=O)[C@@H](NC(=O)[C@H](CCNC(=O)CC23CC4CC(CC(C4)C2)C3)NC(=O)CC23CC4CC(CC(C4)C2)C3)[C@@H](C)O)CCNC(=O)[C@H]([C@@H](C)O)NC(=O)[C@H](CCN)NC(=O)[C@H](CCN)NC1=O [Compound 4] ({Acetyl(1-adamantyl)}-[Dab](Acetyl(1-adamantyl))T[Dab][Dab][Dab][dF]L[Dab][Dab]T; lactam 4-C) (4)
